The reported numbers originate from the supplement of paper PMC8882468.

tested on: HCI-002 (organoid from a triple-negative breast cancer xenograft); experiment: CTG-3D luminescence at 96 h relative to day-0 seeding control (ratio to day 0); higher = more growth / less cytotoxicity; PDxO 3D drug screen, 96 h, CTG-3D normalised to day-0 seeding control.; conditions: 12.5 pM; days in culture: 62
Measured Endpoint: CTG-3D luminescence at 96 h

Compound: CNC(=O)c1cccc(-c2ccc3c(N4CCOC[C@@H]4C)nc(N4CCOC[C@@H]4C)nc3n2)c1
Result: 2.66

Compound: C[C@]12CC[C@@H]3c4ccc(O)cc4C[C@@H](CCCCCCCCC[S+]([O-])CCCC(F)(F)C(F)(F)F)[C@H]3[C@@H]1CC[C@@H]2O (stereo partly drawn)
Result: 2.97

Compound: CCN1CCN(Cc2ccc(Nc3ncc(F)c(-c4cc(F)c5nc(C)n(C(C)C)c5c4)n3)nc2)CC1
Result: 2.66

Compound: CC[C@H](NC(=O)[C@H](C)NC)C(=O)N1C[C@@H](O)C[C@H]1Cc1c(-c2[nH]c3cc(F)ccc3c2C[C@@H]2C[C@H](O)CN2C(=O)[C@H](CC)NC(=O)[C@H](C)NC)[nH]c2cc(F)ccc12
Result: 3.08

Compound: CCN(c1cc(C#CCN2CCOCC2)cc(C(=O)NCc2c(C)cc(C)[nH]c2=O)c1C)[C@H]1CC[C@H](N(C)CCOC)CC1
Result: 3.56

Compound: C[C@H](NC(=O)CCC(F)(F)F)C(=O)N[C@@H]1C(=O)N(CCO)c2ncccc2-c2ccccc21
Result: 2.87

Compound: O=C(/C=C/c1cccnc1)NCCCCC1CCN(C(=O)c2ccccc2)CC1
Result: 2.68

Compound: NC(=O)Nc1cc(-c2cccc(F)c2)sc1C(=O)N[C@H]1CCCNC1
Result: 2.52

----------
CTG-3D luminescence at 96 h: recorded values
test system: HCI-010 (organoid from a breast cancer xenograft); assay: CTG-3D luminescence at 96 h relative to day-0 seeding control (ratio to day 0); higher = more growth / less cytotoxicity; PDxO 3D drug screen, 96 h, CTG-3D normalised to day-0 seeding control.; conditions: 1 µM; days in culture: 65

Compound String: CCc1c2c(nc3ccc(O)cc13)-c1cc3c(c(=O)n1C2)COC(=O)[C@]3(O)CC
CTG-3D luminescence at 96 h: 0.0812

Compound String: C[C@@H]1COCCN1c1cc(C2([S@](C)(=N)=O)CC2)nc(-c2cc[nH]c3nccc2-3)n1
CTG-3D luminescence at 96 h: 0.693

Compound String: C[C@H](NC(=O)CCC(F)(F)F)C(=O)N[C@@H]1C(=O)N(CCO)c2ncccc2-c2ccccc21
CTG-3D luminescence at 96 h: 1.79

Compound String: O=C(c1ccc(F)c(F)c1Nc1ccc(I)cc1F)N1CC(O)([C@@H]2CCCCN2)C1
CTG-3D luminescence at 96 h: 1.6

Compound String: C=CC(=O)N1CCC[C@@H](n2nc(-c3ccc(Oc4ccccc4)cc3)c3c(N)ncnc32)C1
CTG-3D luminescence at 96 h: 1.79

Compound String: CNC(=O)c1cccc(-c2ccc3c(N4CCOC[C@@H]4C)nc(N4CCOC[C@@H]4C)nc3n2)c1
CTG-3D luminescence at 96 h: 0.708

Compound String: CS(=O)(=O)c1ccc(C(=O)Nc2ccc(Cl)c(-c3ccccn3)c2)c(Cl)c1
CTG-3D luminescence at 96 h: 1.71

----------
test system: HCI-002; assay: CTG-3D luminescence at 96 h relative to day-0 seeding control (ratio to day 0); higher = more growth / less cytotoxicity; PDxO 3D drug screen, 96 h, CTG-3D normalised to day-0 seeding control.; conditions: 0.00025 µM; days in culture: 82
CTG-3D luminescence at 96 h: recorded values

Compound: O=C(/C=C/c1cccnc1)NCCCCC1CCN(C(=O)c2ccccc2)CC1
CTG-3D luminescence at 96 h: 3.14
--
Compound: C=CCn1c(=O)c2cnc(Nc3ccc(N4CCN(C)CC4)cc3)nc2n1-c1cccc(C(C)(C)O)n1
CTG-3D luminescence at 96 h: 2.68
--
Compound: CNC(=O)c1cccc(-c2ccc3c(N4CCOC[C@@H]4C)nc(N4CCOC[C@@H]4C)nc3n2)c1
CTG-3D luminescence at 96 h: 2.8
--
Compound: CN(Cc1cnc2nc(N)nc(N)c2n1)c1ccc(C(=O)N[C@@H](CCC(=O)O)C(=O)O)cc1 [methotrexate]
CTG-3D luminescence at 96 h: 3.08
--
Compound: NC(=O)c1cccc2cn(-c3ccc([C@@H]4CCCNC4)cc3)nc12
CTG-3D luminescence at 96 h: 3.51
--
Compound: NC1(C(=O)N[C@@H](CCO)c2ccc(Cl)cc2)CCN(c2nc[nH]c3nccc2-3)CC1
CTG-3D luminescence at 96 h: 2.76
--
Compound: C[C@]12CC[C@@H]3c4ccc(O)cc4C[C@@H](CCCCCCCCC[S+]([O-])CCCC(F)(F)C(F)(F)F)[C@H]3[C@@H]1CC[C@@H]2O (some centres not stated)
CTG-3D luminescence at 96 h: 2.85

----------
tested on: HCI-024 (organoid from a breast cancer xenograft); test: CTG-3D luminescence at 96 h relative to day-0 seeding control (ratio to day 0); higher = more growth / less cytotoxicity; PDxO 3D drug screen (set 2), 96 h, CTG-3D normalised to day-0 seeding control.; conditions: 12.5 pM; days in culture: 202

Compound: C[C@@H](Nc1cc(F)cc(F)c1)c1cc(C(=O)N(C)C)cc2c(=O)cc(N3CCOCC3)oc12 [AZD-8186]
CTG-3D luminescence at 96 h: 1.88
--
Compound: CC(C)n1nc(-c2ccc3oc(N)nc3c2)c2c(N)ncnc21 [sapanisertib]
CTG-3D luminescence at 96 h: 1.13
--
Compound: CO[C@H]1C[C@@H]2CC[C@@H](C)[C@@](O)(O2)C(=O)C(=O)N2CCCC[C@H]2C(=O)O[C@H]([C@H](C)C[C@@H]2CC[C@@H](O)[C@H](OC)C2)CC(=O)[C@H](C)/C=C(\C)[C@@H](O)[C@@H](OC)C(=O)[C@H](C)C[C@H](C)/C=C/C=C/C=C/1C [rapamycin]
CTG-3D luminescence at 96 h: 1.07
--
Compound: CS(=O)(=O)CCNCc1ccc(-c2ccc3ncnc(Nc4ccc(OCc5cccc(F)c5)c(Cl)c4)c3c2)o1 [lapatinib]
CTG-3D luminescence at 96 h: 1.02

----------
system: HCI-019 (organoid from a triple-negative breast cancer xenograft); experiment: CTG-3D luminescence at 96 h relative to day-0 seeding control (ratio to day 0); higher = more growth / less cytotoxicity; PDxO 3D drug screen (set 2), 96 h, CTG-3D normalised to day-0 seeding control.; details: 625 fM; days in culture: 194
CTG-3D luminescence at 96 h: recorded values
Measured Endpoint: CTG-3D luminescence at 96 h

Compound: CS(=O)(=O)CCNCc1ccc(-c2ccc3ncnc(Nc4ccc(OCc5cccc(F)c5)c(Cl)c4)c3c2)o1 [lapatinib]
Result: 2.78

Compound: CC(=O)c1c(C)c2cnc(Nc3ccc(N4CCNCC4)cn3)nc2n(C2CCCC2)c1=O [palbociclib]
Result: 1.43

Compound: CCOc1ccn(-c2ccc(F)cc2)c(=O)c1C(=O)Nc1ccc(Oc2ccnc(N)c2Cl)c(F)c1 [ASLAN002]
Result: 1.75

Compound: CC(C)n1nc(-c2ccc3oc(N)nc3c2)c2c(N)ncnc21 [sapanisertib]
Result: 3.01

----------
test system: HCI-025 (organoid from a breast cancer xenograft); assay: CTG-3D luminescence at 96 h relative to day-0 seeding control (ratio to day 0); higher = more growth / less cytotoxicity; PDxO 3D drug screen, 96 h, CTG-3D normalised to day-0 seeding control.; settings: 100 µM; days in culture: 209
CTG-3D luminescence at 96 h: recorded values
Measured Endpoint: CTG-3D luminescence at 96 h

Compound String: Cc1cc(Nc2ncc(Cl)c(Nc3ccccc3S(=O)(=O)C(C)C)n2)c(OC(C)C)cc1C1CCNCC1
Measured Endpoint: CTG-3D luminescence at 96 h
Result: -0.00366
--
Compound String: C=CC(=O)N1CCC[C@@H](n2nc(-c3ccc(Oc4ccccc4)cc3)c3c(N)ncnc32)C1
Measured Endpoint: CTG-3D luminescence at 96 h
Result: -0.0107
--
Compound String: NC1(C(=O)N[C@@H](CCO)c2ccc(Cl)cc2)CCN(c2nc[nH]c3nccc2-3)CC1
Measured Endpoint: CTG-3D luminescence at 96 h
Result: 0.266
--
Compound String: NC(=O)c1cccc2cn(-c3ccc([C@@H]4CCCNC4)cc3)nc12
Measured Endpoint: CTG-3D luminescence at 96 h
Result: -0.0263
--
Compound String: CS(=O)(=O)c1ccc(C(=O)Nc2ccc(Cl)c(-c3ccccn3)c2)c(Cl)c1
Measured Endpoint: CTG-3D luminescence at 96 h
Result: 0.0933
--
Compound String: CC[C@H](NC(=O)[C@H](C)NC)C(=O)N1C[C@@H](O)C[C@H]1Cc1c(-c2[nH]c3cc(F)ccc3c2C[C@@H]2C[C@H](O)CN2C(=O)[C@H](CC)NC(=O)[C@H](C)NC)[nH]c2cc(F)ccc12
Measured Endpoint: CTG-3D luminescence at 96 h
Result: 0.241
